Let's look at some compounds and their measured TGI.
# System: M14 melanoma
# Method: NCI tumour cell line growth inhibition, 48 h

Check out these entries, answers already filled in.
- Compound Structure String: "COc1ccc(C[C@H](N)C(=O)N2C[C@H](CO)C[C@H](n3cnc4c(N(C)C)ncnc43)C2)cc1"
  Test Result: "> 100 µM"
- Compound Structure String: "CCOC(=O)CCc1c(C(=O)OCC)[nH]c(/C=C2\\NC(=O)C(C)=C2CC)c1C"
  Test Result: "> 100 µM"

We next turn to a different compound, shown below.
Data point: Cn1c(-c2ccc[se]2)ccc1-c1ccc(CO)[se]1 ; TGI = > 100 µM

###

# Test system: K-562 leukemia
# Method: NCI tumour cell line growth inhibition, 48 h
Below, each of the compounds is paired with its reported GI50 value.

Examples from the recorded data:
- Compound Structure String: "Cc1ccccc1S(=O)(=O)N1[C@H](c2ccc(Cl)cc2)C(C(=O)N[C@@H](Cc2ccccc2)C(N)=O)=C[C@@H]1C(C)(C)C"
  Measured Attribute: "GI50"
  Test Result: "7.1 µM"
- Compound Structure String: "O=S(=O)([O-])[O-].[Cl-].[NH2-].[NH2-].[NH2-].[NH2-].[Ru+3].c1ccc(-c2cccnc2)cc1"
  Measured Attribute: "GI50"
  Test Result: "> 100 µM"

Now look at this entry.
Field GI50 (entry CN(C)/C=C/c1nnnn1-c1ccc(Cl)cc1 ) reads 19.6 µM

###

# System: MCF7 breast
# Method: NCI tumour cell line growth inhibition, 48 h
Measured Attribute: TGI

Look over these answered cases.
- Molecule: "N#Cc1cccc(C(=O)c2cnn(-c3ccc(F)cc3)c2N)c1"
  TGI: "> 25 µM"
- Molecule: "CC1(C)[C@@H](Cn2cnc3c(=O)[nH]c(N)nc32)CC[C@@]1(C)CO"
  TGI: "> 100 µM"

Item Cc1nc2cncc(C#Cc3cncc(C(=O)Nc4ccc(CN5CCN(C)CC5)c(C(F)(F)F)c4)c3)c2nc1C ; assay system MCF7 breast; TGI reported as 6.78 µM

Query COc1ccc(C(=C(I)c2ccccc2)c2ccc(OC)cc2)cc1 on MCF7 breast; TGI returned: > 100 µM

Measured TGI (MCF7 breast), entry CC(C)(C)OC(=O)NC(Cc1ccc(O)cn1)C(N)=O (configuration not stated) : > 100 µM

###

# Test system: UACC-62 melanoma
# Method: NCI tumour cell line growth inhibition, 48 h
Measured Attribute: TGI

Given the compound O=c1[nH]c(=O)n(COCc2ccccc2)c2ccc(Br)cc12 and test system UACC-62 melanoma, the measured TGI is > 100 µM

Given the compound O=S1(=O)N(Cc2ccccc2)[C@@H](Cc2ccccc2)C2O[C@H]2[C@H](Cc2ccccc2)N1Cc1ccccc1 (some centres undefined) and test system UACC-62 melanoma, the measured TGI is > 7.5 µM

Item: O=c1[nH]c(=O)n(C2CC(O)C(CO)O2)cc1C(OCC(F)(F)F)OCC(F)(F)F (centres undefined) | System: UACC-62 melanoma | TGI: > 100 µM

Log: UACC-62 melanoma, compound S=c1nc2[nH]c3ccc(Br)cc3c2n[nH]1 , TGI = > 100 µM

###

# Test system: SR leukemia
# Method: NCI tumour cell line growth inhibition, 48 h
Measured Attribute: TGI

These solved cases illustrate the format of a correct answer.
- Compound: "c1cc(C[S+]2CCCC2)ccc1C[S+]1CCCC1"
  TGI: "> 100 µM"
- Compound: "N=S(=O)(c1ccccc1)c1ccccc1[N+](=O)[O-] (stereo unspecified)"
  TGI: "> 100 µM"
- Compound: "ON(CCc1ccncc1)Cc1ccccc1"
  TGI: "> 100 µM"

Reported SR leukemia TGI for item O=C(NCCCCNCCCNC(=O)c1ccccc1)c1ccccc1 was > 100 µM

Result for Cc1ccc(-n2c(O)c3c(N)n[nH]c3c(C#N)c2=O)cc1 , tested on SR leukemia, TGI: > 100 µM

The reported SR leukemia TGI of COc1ccc(C[C@H](N)C(=O)N2C[C@H](CO)C[C@H](n3cnc4c(N(C)C)ncnc43)C2)cc1 is > 100 µM

Value sought: TGI, system SR leukemia, item N/N=C1/C(=N/O)CCc2nonc21 . Result: > 100 µM

###

# Tested on: M14 melanoma
# Method: NCI tumour cell line growth inhibition, 48 h
Recorded TGI, one value per entry.

Worked cases, TGI given:
- Compound Structure String: "O=C(Nc1ncc(Cc2ccccc2)s1)c1ccc2c(c1)OCCCO2"
  Test Result: "> 100 µM"
- Compound Structure String: "CC(C)(C)n1c(=O)n(C(=O)C(Cl)(Cl)Cl)n(C(=O)C(Cl)(Cl)Cl)c1=O"
  Test Result: "> 100 µM"

Sure, the documented TGI for O=c1c2ccccc2n2nnc3ccc(NCCCNCCNCCCNc4ccc5nnn6c7ccccc7c(=O)c4c56)c1c32 is > 30 µM

Memo: c1cc(C[S+]2CCCC2)ccc1C[S+]1CCCC1 , reported TGI: > 100 µM

###

# Tested on: OVCAR-8 ovarian
# Method: NCI tumour cell line growth inhibition, 48 h; in the data active = GI50 below about 0.43 µM; inactive = the rest
Use one of these outcomes when replying: yes for active, no for inactive

Solved cases below.
- Molecule: "Nc1nc2c(c3ncccc13)C(c1ccc(Cl)c(Cl)c1)Cc1ncccc1-2 (stereo not drawn)"
  Class Label: "no"
- Molecule: "COc1ccc(Nc2ccnc(NCCNc3ccnc4cc(Cl)ccc34)n2)cc1"
  Class Label: "no"
- Molecule: "CSc1ccc(-c2cc(-c3ccc(NC(=O)CCCN4CCCC4)cc3)nc(-c3ccc(NC(=O)CCCN4CCCC4)cc3)c2)cc1"
  Class Label: "no"

Data request: Recorded test call requested for COc1ccc(-c2nsc3c2NC(=O)CC3c2ccc3c(c2)OCO3)cc1 (stereo not drawn)
Data returned: no

Data request: Dear all, I need the recorded test outcome for COc1ccc(C2=CC(c3cc(OC)c(OC)c(OC)c3)NC(=O)N2)cc1OC (stereo not drawn) , thank you.
Data returned: no

Data request: Could you check what this test reported for CNc1nc(C)c(-c2nc(Nc3cccc(S(N)(=O)=O)c3)ncc2F)s1 ?
Data returned: yes

Data request: Assay outcome for CCCCCCOc1ccc(/C=N/NC(N)=S)cc1 : what was it?
Data returned: no

Data request: Tell me the assay call for NC(N)=N/N=C/c1c(-c2cccs2)nc2sccn12 please.
Data returned: no

###

# Test system: SNB-75 CNS
# Method: NCI tumour cell line growth inhibition, 48 h
Catalogue of TGI readings, one per entry.

Worked examples, 10 compounds total:
- Compound: "NC(c1ccccc1)(C(F)(F)F)P1(=O)OC(=O)c2ccccc2O1 (stereo not given)"
  Test Result: "> 100 µM"
- Compound: "CC(NC(=O)OCc1ccccc1)NC(=O)C(CC(=O)OC(C)(C)C)NC(=O)OC(C)(C)C (stereo not given)"
  Test Result: "> 100 µM"
- Compound: "CC1(C)[C@@H](Cn2cnc3c(=O)[nH]c(N)nc32)CC[C@@]1(C)CO"
  Test Result: "> 100 µM"
- Compound: "Oc1ccc2c(c1)CC[N+]1=C2CCC2CCCC21 (stereo not given)"
  Test Result: "> 100 µM"
- Compound: "O=S(=O)([O-])[O-].[Cl-].[NH2-].[NH2-].[NH2-].[NH2-].[Ru+3].c1ccc(-c2cccnc2)cc1"
  Test Result: "> 100 µM"
- Compound: "CNc1nc(C)c(-c2nc(Nc3cccc(S(N)(=O)=O)c3)ncc2F)s1"
  Test Result: "0.147 µM"
- Compound: "C=CCC12CCC(=O)C=C1CCC1(C2)OCCO1 (stereo not given)"
  Test Result: "> 100 µM"
- Compound: "CC1=C(C(=O)Nc2ccc3[nH]ncc3c2)C(c2ccc(F)cc2)NC(=O)N1 (stereo not given)"
  Test Result: "> 25 µM"
- Compound: "O=CN1N=C(c2ccc(Nc3ccnc4cc(Cl)ccc34)cc2)CC1c1ccccc1 (stereo not given)"
  Test Result: "> 100 µM"
- Compound: "CC1(C)CN(c2ccccc2)C(=O)C1OC(=O)[C@@]1(C)C[C@@H]2C=C[C@H]1C2 (stereo not given in full)"
  Test Result: "75 µM"

Would you kindly look at the next entry?
Entry under test: C=CCN(c1cc(OCc2ccccc2)c(NC(C)=O)cc1[N+](=O)[O-])S(C)(=O)=O . Its TGI was 43.6 µM

###

# System: COLO 205 colon
# Method: NCI tumour cell line growth inhibition, 48 h; in the data active means GI50 below about 0.43 µM; inactive means the rest
Reply using exactly one outcome from T = active, F = inactive

Worked cases, answers included:
- Compound: "Nc1nc2c(c3ncccc13)C(c1ccc(Cl)c(Cl)c1)Cc1ncccc1-2 (stereo unspecified)"
  Class Label: "F"
- Compound: "O=C(Nc1ncc(Cc2ccccc2)s1)c1ccc2c(c1)OCCCO2"
  Class Label: "F"
- Compound: "COc1cc([C@@H]2c3cc4c(cc3C(Br)[C@H]3COC(=O)[C@H]23)OCO4)cc(OC)c1OC (stereo partly specified)"
  Class Label: "T"
- Compound: "Cc1ccccc1S(=O)(=O)N1[C@H](c2ccc(Cl)cc2)C(C(=O)N[C@@H](Cc2ccccc2)C(N)=O)=C[C@@H]1C(C)(C)C"
  Class Label: "F"
- Compound: "O=CN1N=C(c2ccc(Nc3ccnc4cc(Cl)ccc34)cc2)CC1c1ccccc1 (stereo unspecified)"
  Class Label: "F"

Data request: Field: outcome | Entry: Nc1ccc(-c2nc3ccccc3[nH]2)c(O)c1
Data returned: F
